System: Vero E6
Experiment: cell viability relative to DMSO; higher = less toxic
Conditions: 72 h; 10000 nM
Quick reference for cell viability among some compounds
propertyMeasured: cell viability (%)

compound	valueMeasured
CC(=O)Nc1nc2c(Oc3cc(-c4ccc(C(F)(F)F)cc4)ncn3)cccc2s1	99.4
C/C=C/c1cc(OC)c(OC)cc1OC	104
CNC(=O)c1cccc2cc(Oc3ccnc4cc(OCC5(N)CC5)c(OC)cc34)ccc12	86
Cc1cc(C(C)(C)C)cc(C)c1CC1=NCCN1	89.8
OC[C@H]1O[C@@H](Oc2cc(O)cc(/C=C/c3ccc(O)cc3)c2)[C@H](O)[C@@H](O)[C@@H]1O	99
Cc1ccc(CC2(O)CCN(CCOc3ccc(O)cc3)CC2)cc1	93.1
NC(=O)c1[nH]cnc1O	100
Cc1ccc(/C(=C\CN2CCCC2)c2cccc(/C=C/C(=O)O)n2)cc1	112
CCOC(=O)OC(C)OC(=O)[C@@H]1N2C(=O)[C@@H](NC(=O)[C@H](N)c3ccccc3)[C@H]2SC1(C)C (some centres not stated)	98.6
CCNC(=O)CCC/C=C\C[C@@H]1[C@@H](/C=C/[C@@H](O)CCc2ccccc2)[C@H](O)C[C@@H]1O	106
CC[C@H](C)[C@@H]([C@@H](CC(=O)N1CCC[C@H]1[C@H](OC)[C@@H](C)C(=O)N[C@@H](Cc1ccccc1)c1nccs1)OC)N(C)C(=O)[C@@H](NC(=O)[C@H](C(C)C)N(C)C)C(C)C	9.9
COc1cc2c(cc1OC)C(c1ccc(N)cc1)=NNC(=O)C2	100
COc1ccc(OC[C@@H]2c3cc(OC)c(OC)cc3CCN2C(=O)c2cccc(Cl)c2)cc1	98.6
Nc1ncnc2c1c(-c1ccc(Cl)cc1)nn2-c1cccc(-c2cnnn2Cc2cccc(-c3ccccc3)c2)c1	105
CC(C)(Oc1ccc(Cl)cc1)C(=O)OCCOC(=O)c1cccnc1 [etofibrate]	98.5
CCN1CCN(Cc2ccc(C(=O)Nc3ccc(C)c(Oc4ccc5c(c4)CC(=O)N5)c3)cc2C(F)(F)F)CC1	72.9
Nc1nccc2c1ncn2C1C=C(CO)C(O)C1O (configuration not stated)	36.2
